# method summary: protein stability index of a GFP-peptide fusion (GPS, HEK-293T) (PSI 1-6); higher = more stable;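 also: 24-mer peptide tiles fused after GFP, lentivirally expressed, FACS-sorted into six equal bins by GFP/DsRed ratio, decoded by Illumina sequencing, PSI is the read-weighted mean bin number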
# settings: treatment: MLN4924 1 uM, 8 h; c terminus: a fixed tail appended
metric name: protein stability index
Kindly provide the number alone.

// known answers, use as guide
Which protein stability index value is on record for EDWVLLGMANGQQWLQSTSGSQRH [TLE6] ?
3.2

Which protein stability index reading was recorded for the sequence RIIYMLLITIATFQIAANLSMERY [SLC19A2] ?
2.91

Fill in the blank: the reported protein stability index of LVEETSCQQNMIQELIETNQQLRN [CEP70] is ____.
4.41

Quick one: protein stability index for EYVPGGELFSYLRNRGRFSSTTGL [PRKX] ?
2.82

Look up protein stability index: DQEPLLSIDLGTAHSAAVTASGDC [NEK8]
5.17

Next:
Quick check: protein stability index of EVKKKGKMKKLGQAMEEDLIVGLQ [HDAC6] ?
4.75

---

# method summary: protein stability index of a GFP-peptide fusion (GPS, HEK-293T) (PSI 1-6); higher = more stable
# settings: treatment: MLN4924 1 uM, 8 h; c terminus: a fixed tail appended
metric name: protein stability index
Output spec: single numeric token, no unit.

In the examples that follow, each entry is paired with its recorded protein stability index.
Recorded protein stability index for DEDEVAAEEPNAAVPDEIPPLEGD [HSP90AB1] , please?
5.61

Report protein stability index for LSNLQKESRACLERIQELEDLLAK [LMNB1] please.
3.67

Find the recorded protein stability index belonging to RASRTYELQNQLAACTRALESSEE [FSD1] and report it.
4.92

What does the record list as protein stability index for KGAPASWWNHMHFQHHAKPNCFRK [FADS1] ?
3.01

Field request: protein stability index | item: QNLLREKIMKLPLPESLKAYLTYF [PCMTD1]
2.12

Bench note: what protein stability index did GDVLLDETLKHIKATEPTETVQTW [GOLPH3L] show?
4.45

Reported protein stability index, sequence LAGQKDELQLSDLLKQGYNKTLLR [PKD2L1] : ____
3.39

# get_value(readout='protein stability index', item= SRLLFFLLGFLRIRVRGQRASRLQ [LPCAT4] )
2.58

Return reported protein stability index; argument: DYELLQMLQIVVGVRDSGSPPLHA [PCDHGC5]
2.18

For the sequence TVAAETRAVIAWMEKIPFVLGGNL [CPXM2] , what protein stability index is on record?
2.71

---
Given SAQAPPDSISLHQPCNPPAPAGDK [DMRTC1] , state its recorded protein stability index.
5.28

Look up protein stability index for this sequence: KDRRFAYGRSDVVVLCFSIANPNS [RHOBTB1]
2.34

What measured protein stability index goes with EEEKEWAFEESKIDEHHFVAVALR [AASDHPPT] ?
3.84

GET /values?readout=protein stability index&item= PQEAAGAQGRAGAPVPEPPKEEQQ [EPB41L3]
5.75

Which value of protein stability index has been reported for FLFVLARVPAGIFKHTLSISRALL [MFSD9] in the records?
2.81

# get_value(readout='protein stability index', item= LKKEPGHPWKWSNGKEFNNWFNVT [CD69] )
2.23

Field request: protein stability index | item: TETREEDVTDEHGEREPFAETDEH [FAM9B]
5.63

Which protein stability index reading was recorded for the sequence SWLESCIVGWRCRVGQWVRMENVT [GMPPB] ?
2.69

Field request: protein stability index | item: LVYLGDLSRYQNELAGVDTELLAE [SMG5]
2.74

Entry LPCARVQICRAQGLETLFSKAQEL [ZSWIM9] has what protein stability index?
2.33

For the sequence shown here, PTGDVLLDEALKHVKETQPPETVQ [GOLPH3] , give the reported protein stability index.
5.21

Each recorded value in this set is attributed to the supplement of paper PMC10567573.
